Source listed as patent US12264156B2.

The molecules below have reported pIC50 for SIK1 (Homo sapiens, UniProt P57059).
pIC50: −log10 of the molar value.

Consider the reported pIC50 for these molecules:
Molecule	pIC50
COc1cc(-c2cnc3cc(OCC4CCCO4)ccn23)cc(OC(F)F)c1C(=O)NC1CC1 (stereo not drawn)	7.00 to 8.00
COc1cc(-c2cnc3cc(OCCN4CCC4)ccn23)cc(OC(F)F)c1C(=O)NC1CC1	7.00 to 8.00

Query: System SIK1 (Homo sapiens, UniProt P57059). Read-out pIC50. Item COC(=O)[C@@H]1CN(CC(O)COc2ccn3c(-c4cc(OC)c(C(=O)NC5CC5)c(OC(F)F)c4)cnc3c2)CCO1 (stereo partly drawn) . Report value.
Response: 7.00 to 8.00

Query: Give reported pIC50 for CCOC(=O)C1(O)CCN(CC(O)COc2ccn3c(-c4cc(OC)c(C(=O)NC5CC5)c(OC(F)F)c4)cnc3c2)CC1 (stereo not drawn) (SIK1 (Homo sapiens, UniProt P57059))
Response: 7.00 to 8.00

Query: Provide the reported pIC50 (system: SIK1 (Homo sapiens, UniProt P57059)) for `COc1cc(-c2cnc3cc(OC[C@H]4COCCO4)ccn23)cc2c1C(=O)NCC2`
Sequence (P57059 whole entry): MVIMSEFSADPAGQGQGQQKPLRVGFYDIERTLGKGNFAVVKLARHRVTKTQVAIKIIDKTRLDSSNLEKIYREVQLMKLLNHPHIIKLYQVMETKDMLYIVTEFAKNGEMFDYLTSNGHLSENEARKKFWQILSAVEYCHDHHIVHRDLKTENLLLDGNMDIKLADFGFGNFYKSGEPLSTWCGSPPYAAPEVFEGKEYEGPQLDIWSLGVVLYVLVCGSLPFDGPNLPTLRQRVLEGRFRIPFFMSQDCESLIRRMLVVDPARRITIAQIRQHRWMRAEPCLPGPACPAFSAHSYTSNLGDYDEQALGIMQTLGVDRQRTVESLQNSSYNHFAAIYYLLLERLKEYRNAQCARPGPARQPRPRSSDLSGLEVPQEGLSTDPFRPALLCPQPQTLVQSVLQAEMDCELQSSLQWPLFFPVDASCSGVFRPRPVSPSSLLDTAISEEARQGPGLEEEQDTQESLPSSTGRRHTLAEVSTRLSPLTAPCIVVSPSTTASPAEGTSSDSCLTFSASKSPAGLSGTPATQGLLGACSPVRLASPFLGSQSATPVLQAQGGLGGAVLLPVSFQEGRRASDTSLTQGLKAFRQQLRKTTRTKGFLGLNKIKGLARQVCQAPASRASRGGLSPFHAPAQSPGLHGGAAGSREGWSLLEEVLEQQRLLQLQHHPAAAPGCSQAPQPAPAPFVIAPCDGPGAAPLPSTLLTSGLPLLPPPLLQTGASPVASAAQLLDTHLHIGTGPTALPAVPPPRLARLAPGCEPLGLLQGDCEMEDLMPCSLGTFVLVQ
Response: 7.00 to 8.00

Query: Write down the reported pIC50 (system: SIK1 (Homo sapiens, UniProt P57059)) of `COc1cc(-c2cnc3cc(OCc4nnc(C5CC5)o4)ccn23)cc(OC(F)F)c1C(=O)NC1CC1`
Response: 8.00 to 11.00

Query: Under SIK1 (Homo sapiens, UniProt P57059): report pIC50 of `COc1cc(-c2cnc3cc(OCC4(C)CN(C)C4)ccn23)cc(OC(F)F)c1C(=O)NC1CC1` .
Response: 7.00 to 8.00

* * *

Here's a batch of compounds along with measured IC50 for SIK3 (Homo sapiens).

Examples from the recorded data:
Compound	IC50
COc1cc(-c2cnc3cc(OCCN4CCC4)ccn23)cc(OC(F)F)c1C(=O)NC1CC1	0.01 to 10 nM
COc1cc(-c2cnc3cc(OCCN(C)CC(F)F)ccn23)cc(OC(F)F)c1C(=O)NC1CC1	0.01 to 10 nM
COc1cc(-c2cnc3cc(OCc4ccnn4C)ccn23)cnc1C(=O)NCC(F)(F)F	10 to 100 nM
COc1cc(-c2cnc3cc(OCC4CNC(=O)C4)ccn23)cc(OC(F)F)c1C(=O)NC1CC1 (centres unmarked)	0.01 to 10 nM
COc1cc(-c2cnc3cc(OCc4ccnn4C)ccn23)cc(OC(F)F)c1C(=O)NC1CC1	0.01 to 10 nM
COc1cc(-c2cnc3cc(OC4CCCN(C)C4)ccn23)cc(OC)c1C(=O)NCC(F)(F)F (centres unmarked)	10 to 100 nM
COc1cc(-c2cnc3cc(OCCN(CC(F)F)C4CC4)ccn23)cc(OC(F)F)c1C(=O)NC1CC1	0.01 to 10 nM
COc1cc(-c2cnc3cc(OCCCN4CCc5c(ncn5C)C4)ccn23)cc(OC(F)F)c1C(=O)NC1CC1	0.01 to 10 nM

Query: // output IC50; input `COc1cc(-c2cnc3cc(OCCCN4CCc5nc(C)sc5C4)ccn23)cc(OC(F)F)c1C(=O)NC1CC1` ; system SIK3 (Homo sapiens)
Response: 0.01 to 10 nM

Query: Recall the reported IC50 of `COc1cc(-c2cnc3cc(OC[C@H]4CCCNC4)ccn23)cc(OC(F)F)c1C(=O)NC1CC1` on SIK3 (Homo sapiens) and write it down.
Sequence (Q9Y2K2 whole entry): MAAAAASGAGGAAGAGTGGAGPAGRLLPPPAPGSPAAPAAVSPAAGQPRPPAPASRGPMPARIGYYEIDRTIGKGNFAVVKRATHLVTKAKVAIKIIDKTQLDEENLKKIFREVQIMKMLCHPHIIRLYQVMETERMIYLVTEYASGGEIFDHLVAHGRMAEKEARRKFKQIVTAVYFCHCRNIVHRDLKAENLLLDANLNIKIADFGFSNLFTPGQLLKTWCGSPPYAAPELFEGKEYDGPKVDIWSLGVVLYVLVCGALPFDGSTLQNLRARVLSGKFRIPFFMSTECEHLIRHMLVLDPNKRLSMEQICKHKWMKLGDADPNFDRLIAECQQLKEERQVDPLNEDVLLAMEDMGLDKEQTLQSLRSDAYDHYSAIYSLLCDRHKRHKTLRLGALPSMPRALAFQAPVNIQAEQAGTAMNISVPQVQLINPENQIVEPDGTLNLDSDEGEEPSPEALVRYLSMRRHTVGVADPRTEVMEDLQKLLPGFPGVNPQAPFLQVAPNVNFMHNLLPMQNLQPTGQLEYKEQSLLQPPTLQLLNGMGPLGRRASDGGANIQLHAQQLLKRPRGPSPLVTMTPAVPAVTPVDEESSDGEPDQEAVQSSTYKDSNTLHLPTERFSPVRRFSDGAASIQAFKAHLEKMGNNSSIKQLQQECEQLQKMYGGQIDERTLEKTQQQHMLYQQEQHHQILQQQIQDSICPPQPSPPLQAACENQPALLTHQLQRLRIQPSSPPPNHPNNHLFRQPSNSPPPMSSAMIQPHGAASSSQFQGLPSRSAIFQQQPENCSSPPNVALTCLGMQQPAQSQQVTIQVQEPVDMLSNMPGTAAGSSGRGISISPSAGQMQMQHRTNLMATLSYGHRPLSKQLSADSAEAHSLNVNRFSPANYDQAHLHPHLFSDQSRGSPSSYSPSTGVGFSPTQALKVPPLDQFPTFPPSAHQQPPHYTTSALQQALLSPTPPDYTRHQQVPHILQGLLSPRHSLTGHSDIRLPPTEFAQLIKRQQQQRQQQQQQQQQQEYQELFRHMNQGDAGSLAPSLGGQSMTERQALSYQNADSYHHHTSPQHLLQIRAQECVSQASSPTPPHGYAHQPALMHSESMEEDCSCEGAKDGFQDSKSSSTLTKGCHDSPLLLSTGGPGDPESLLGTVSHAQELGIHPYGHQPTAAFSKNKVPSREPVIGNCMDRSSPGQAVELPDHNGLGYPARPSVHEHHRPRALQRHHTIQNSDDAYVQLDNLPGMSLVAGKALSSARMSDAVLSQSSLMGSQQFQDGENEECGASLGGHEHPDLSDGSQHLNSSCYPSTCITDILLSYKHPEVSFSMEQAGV
Response: 0.01 to 10 nM

Query: Report value: IC50, system: SIK3 (Homo sapiens), compound: `COc1cc(-c2cnc3cc(OCCC#N)ccn23)cc(OC(F)F)c1C(=O)NC1CC1`
Response: > 500 nM

Query: // output IC50; input COc1cc(-c2cnc3cc(OCC(O)CN4CCOCC4)ccn23)cc(OC(F)F)c1C(=O)NC1CC1 (single isomer, unassigned) [Cpd 387] ; system SIK3 (Homo sapiens)
Response: 0.01 to 10 nM

Query: Param request: IC50 | system SIK3 (Homo sapiens) | item `COc1cc(-c2cnc3cc(OC[C@H]4CCN(CCC#N)C4)ccn23)cc(OC(F)F)c1C(=O)NC1CC1`
Response: 0.01 to 10 nM

Query: Enter IC50 (test system SIK3 (Homo sapiens)) for COc1cc(-c2cnc3cc(OCC(O)CN4CC(O)(C(F)(F)F)C4)ccn23)cc(OC(F)F)c1C(=O)NC1CC1 (centres unmarked)
Response: 0.01 to 10 nM

* * *

- Target: SIK1 (Homo sapiens, UniProt P57059)
- Construct: purchased Carna Biosciences 02-131
- Run Description: ADP-Glo kinase assay, SIK1
- Format: biochemical
- Conditions Used: ADP-Glo SIK kinase assay
- Method: The ADP-Glo™ kinase assay is a luminescent technology assay which measures the ADP formed from a kinase reaction. […] In a second step the kinase reactions are terminated and all the remaining ATP is depleted. In a final step the ADP is converted into ATP and this newly synthesized ATP is measured by using a luciferase/luciferin reaction. The generated light is measured using an Envision plate reader, wherein the luminescent signal obtained positively correlates with the kinase activity. […]
pIC50: −log10 of the molar value.
Measured pIC50 of individual entries

Here's what some known entries look like.
Compound	Target	pIC50
COc1cc(-c2cnc3cc(OCCN4CCOCC4C)ccn23)cc(OC(F)F)c1C(=O)NC1CC1 (centres unmarked)	SIK1 (Homo sapiens, UniProt P57059)	7.00 to 8.00
COc1cc(-c2cnc3cc(OCCN4CCN(C(C)C)CC4)ccn23)cc(OC(F)F)c1C(=O)NC1CC1	SIK1 (Homo sapiens, UniProt P57059)	7.00 to 8.00
COc1cc(-c2cnc3cc(OC4CCC(F)(F)CC4)ccn23)cc(OC(F)F)c1C(=O)NC1CC1	SIK1 (Homo sapiens, UniProt P57059)	6.30 to 7.00
COc1cc(-c2cnc3cc(OCC4CCN(C5COC5)C4)ccn23)cc(OC(F)F)c1C(=O)NC1CC1 (centres unmarked)	SIK1 (Homo sapiens, UniProt P57059)	7.00 to 8.00
COc1cc(-c2cnc3cc(OCCN4CCOCC4(C)C)ccn23)cc(OC(F)F)c1C(=O)NC1CC1	SIK1 (Homo sapiens, UniProt P57059)	7.00 to 8.00
COc1cc(-c2cnc3cc(OCCCN4CC(O)(C(F)(F)F)C4)ccn23)cc(OC(F)F)c1C(=O)NC1CC1	SIK1 (Homo sapiens, UniProt P57059)	7.00 to 8.00
COc1cc(-c2cnc3cc(OCCNC(C)=O)ccn23)cc(OC(F)F)c1C(=O)NC1CC1	SIK1 (Homo sapiens, UniProt P57059)	8.00 to 11.00
COc1cc(-c2cnc3cc(OCC(C)(C)N)ccn23)cc(OC(F)F)c1C(=O)NC1CC1	SIK1 (Homo sapiens, UniProt P57059)	6.30 to 7.00

Query: Return value of pIC50 for input `COc1cc(-c2cnc3cc(OCCCN4CCOCC4)ccn23)cc(OC(F)F)c1C(=O)NC1CC1` , no commentary.
Response: 7.00 to 8.00

Query: Look up and report measured pIC50 for this entry: `COc1cc(-c2cnc3cc(OCCN(C)c4ccncc4)ccn23)cc(OC(F)F)c1C(=O)NC1CC1`
Response: 8.00 to 11.00

Query: Give pIC50 for the following compound: `COc1cc(-c2cnc3cc(OC[C@H]4CCCN(C5COC5)C4)ccn23)cc(OC(F)F)c1C(=O)NC1CC1`
Response: 8.00 to 11.00

Query: Return pIC50 (reported value) for this compound: COc1cc(-c2cnc3cc(OCC(O)CN4CCC(O)CC4)ccn23)cc(OC(F)F)c1C(=O)NC1CC1 (centres unmarked)
Response: 7.00 to 8.00

Query: Given COc1cc(-c2cnc3cc(OCC4CCCN4C4COC4)ccn23)cc(OC(F)F)c1C(=O)NC1CC1 (centres unmarked) , respond with its pIC50.
Response: 7.00 to 8.00

Query: Please look at this compound and report its pIC50: `COc1cc(-c2cnc3cc(OCCCN4CCS(=O)(=O)CC4)ccn23)cc(OC(F)F)c1C(=O)NC1CC1`
Response: 7.00 to 8.00

Query: For the compound `COc1cc(-c2cnc3cc(OCc4cn(C)cn4)ccn23)cc(OC(F)F)c1C(=O)NC1CC1` , report pIC50.
Response: 7.00 to 8.00

Query: Please list pIC50 recorded for the compound `COc1cc(-c2cnc3cc(OCCN4CCCC(F)(F)C4)ccn23)cc(OC(F)F)c1C(=O)NC1CC1`
Response: 8.00 to 11.00

Query: Supply recorded pIC50 for COc1cc(-c2cnc3cc(OCC4CN(C)C(=O)O4)ccn23)cc(OC(F)F)c1C(=O)NC1CC1 (centres unmarked) here.
Response: 8.00 to 11.00

Query: Give me measured pIC50, please, for this compound: `COc1cc(-c2cnc3cc(OCCOCCN4CCCCC4)ccn23)cc(OC(F)F)c1C(=O)NC1CC1`
Response: 7.00 to 8.00

Query: # return recorded pIC50 for input `COc1cc(-c2cnc3cc(OC[C@@H]4CN(C)CCO4)ccn23)cc2c1C(=O)N(CC(F)(F)F)CC2`
Response: 6.30 to 7.00

Query: Recall and state the measured pIC50 for `COc1cc(-c2cnc3cc(OC[C@@H]4CCN(CCO)C4)ccn23)cc(OC(F)F)c1C(=O)NC1CC1` .
Response: 7.00 to 8.00

Query: Supply reported pIC50 belonging to this compound: CCOC(=O)CN1CCCCC1COc1ccn2c(-c3cc(OC)c(C(=O)NC4CC4)c(OC(F)F)c3)cnc2c1 (centres unmarked)
Response: 7.00 to 8.00

Query: Tell us which pIC50 value is on record for `COc1cc(-c2cnc3cc(OCc4ccncc4)ccn23)cc(OC(F)F)c1C(=O)NC1CC1`
Response: 7.00 to 8.00

Query: Give the reported value of pIC50 for this record: `COc1ccn2c(-c3cc4c(c(OC)c3)C(=O)N(CC(F)(F)F)CC4)cnc2c1`
Response: 6.30 to 7.00

Query: Look up and report measured pIC50 for this entry: `COc1cc(-c2cnc3cc(OC[C@H]4COCCO4)ccn23)cnc1C(=O)NCC(F)(F)F`
Response: < 6.30

Query: Identify the reported pIC50 for the following entry. `COc1cc(-c2cnc3cc(OC[C@H]4COCCO4)ccn23)cc2c1C(=O)N(CC(F)F)CC2`
Response: 6.30 to 7.00

Query: Name the recorded pIC50 of the compound listed here: `CNc1cc(-c2cnc3cc(OCCN(C)C)ccn23)cc(OC(F)F)c1C(=O)NC1CC1`
Response: 7.00 to 8.00
